test system: PC-3 prostate; assay: NCI tumour cell line growth inhibition, 48 h; in the data active = GI50 below about 0.43 µM; inactive = the rest
Tick one outcome: yes (1) for active, no (0) for inactive

Worked examples, 3 compounds total:
CO/N=C(\COc1ccc2oc(-c3ccccc3)cc(=O)c2c1)c1ccc(F)cc1 :: no (0)
CNC(=O)c1cncc(/C=C/c2ccccc2Cl)c1 :: no (0)
CN(C)CCCNc1nc2ccccc2c2[nH]c3ccccc3c12 :: no (0)

Input line: # outcome recorded in this test, key = CC(C)c1ccc(NC(=O)Cc2ccc(Nc3ncnc4cc(-c5cnn(CCN(C)C)c5)ccc34)cc2)cc1
Output line: no (0)

Input line: # outcome recorded in this test, key = COc1cc(NCCCCCN=C(N)NC(N)=NC(C)C)c2ncccc2c1
Output line: no (0)

---

tested on: CCRF-CEM leukemia; experiment: NCI tumour cell line growth inhibition, 48 h
quantity measured: GI50

Below, 8 molecules whose answers are already recorded.
O=c1[nH]c(=O)n(C2CC(O)C(CO)O2)cc1C(F)(F)F (stereo unspecified) :: 557 nM
COc1cc2c3c(n(CCCNCCCN)c(=O)c2cc1OC)-c1cc2c(cc1C3=O)OCO2 :: 220 nM
CC[PH+](CC)CC.[Cl][Au] :: 216 nM
O=C(/C=C/C12c3ccccc3C(c3ccccc31)C1C(=O)NC(=O)C12)c1ccccc1 (stereo unspecified) :: 2170 nM
CS(=O)(=O)N(c1cc(-c2ccc3ncnc(Nc4ccc(F)c(Cl)c4)c3c2)cnc1Cl)S(C)(=O)=O :: 527 nM
COc1ccc2nc3cc(Cl)ccc3c(Nc3cc(CN4CCCC4)c(O)c(CN4CCCC4)c3)c2n1 :: 1120 nM
CC1(C)CCC[C@]2(C)c3ccccc3C(=O)CC12 (stereo partly specified) :: 31700 nM
C=C1CCC2C3(C)COC(c4ccccc4Cl)OC3CCC2(C)C1/C=C/C1=CCOC1=O (stereo unspecified) :: 5330 nM

Input line: What value of measured GI50 is listed for CC/C(=C/c1ccc(OC)cc1OC)[N+](=O)[O-] ?
Output line: 2050 nM

Input line: What value of measured GI50 is listed for CCn1c(-c2nonc2N)nc2c(N3CCCC3)nccc21 ?
Output line: 18400 nM

Input line: What value of measured GI50 is listed for N#Cc1cccc(C2C3=C(COC3=O)N(CCO)c3cc4c(cc32)OCO4)c1 (stereo unspecified) ?
Output line: 1530 nM

---

test system: SK-MEL-2 melanoma; assay: NCI tumour cell line growth inhibition, 48 h
Each item that follows carries a reported TGI.
Write the number in µM without appending the unit.

CO[C@@]1(c2ccccc2)O[C@H]2OCCC2[C@H]1c1ccc(Cl)cc1 (stereo not given in full) :: 80.9
COc1ccc(C(=O)/C=C/SC(=NC#N)SC)cc1 :: 43.8
O=C(NC(C(F)(F)F)(C(F)(F)F)P(=O)(Cc1ccccc1)Cc1ccccc1)C(C(F)(F)F)C(F)(F)F :: 59.1

Input line: What value of measured TGI is listed for c1ccc(OC2=NC3=S(S2)SC(Oc2ccccc2)=N3)cc1 ?
Output line: 29.8

---

system: MALME-3M melanoma; test: NCI tumour cell line growth inhibition, 48 h
Each item that follows carries a reported TGI.

COc1cc(/C=N/N=C(\N)NO)c([N+](=O)[O-])cc1OC :: > 100 µM

Input line: What value of measured TGI is listed for C=C1[C@@H]2CCC3[C@]4(C)C(CC[C@@]5(C)C(=O)O[C@H](O)[C@@H]45)[C@H](O)[C@]3(C2)[C@H]1OC1OC(CO)C(O)C(O)C1O (some centres undefined) ?
Output line: > 50 µM

Input line: What value of measured TGI is listed for CCOC(=O)N1CCN(c2c(N)nc(C)[nH]c2=O)CC1 ?
Output line: > 100 µM

Input line: What value of measured TGI is listed for CC1(C)OCC(C2OC(C)(C)OC2[C@H]2O[C@@]3(O)[C@H]4[C@H](C=CC[C@@H]42)[C@@H](OCc2ccccc2)[C@H](OCc2ccccc2)[C@H]3OCc2ccccc2)O1 (some centres undefined) ?
Output line: > 100 µM

Input line: What value of measured TGI is listed for CN1CCN(CCCOc2cc(O)c3c(=O)cc(-c4ccccc4)oc3c2)CC1 ?
Output line: 42.6 µM

---

Each item that follows carries a reported TGI.
test system: SK-MEL-2 melanoma; assay: NCI tumour cell line growth inhibition, 48 h

Below, 5 molecules whose answers are already recorded.
CSc1nc(=O)c2nc(-c3cccs3)c(-c3cccs3)nc2n1C :: > 100 µM
COC(=O)N[C@H]1CCc2c(Cl)c(OC)c(OC)c(OC)c2-c2ccc(SC)c(=O)cc21 :: > 70.3 µM
O=c1[nH]c(=O)n(C2CC(O)C(CO)O2)cc1C(F)(F)F (stereo not given) :: > 100 µM
CC1(C)CCC[C@]2(C)c3ccccc3C(=O)CC12 (stereo not given in full) :: 61.3 µM
O=C1Nc2cc(F)ccc2C1=O :: > 100 µM

Input line: What value of measured TGI is listed for CCC[CH2][Sn]1([CH2]CCC)[S]CC[N]1S(=O)(=O)c1ccc(C)cc1 ?
Output line: 2.73 µM

Input line: What value of measured TGI is listed for COc1cc2c(cc1OCc1ccccc1)NC(=O)[C@@H]1CCCN1C2=O ?
Output line: > 100 µM

---

tested on: UACC-62 melanoma; test: NCI tumour cell line growth inhibition, 48 h
Each item that follows carries a reported TGI.

Below, 8 compounds whose answers are already recorded.
c1ccc(OC2=NC3=S(S2)SC(Oc2ccccc2)=N3)cc1 :: 37.6 µM
CSc1nc(Cl)c2c(n1)Sc1nc3ccccc3n1C2O (stereo unspecified) :: > 100 µM
O=C(c1ccco1)N(C(=O)N1CCC(c2ccccc2)CC1)c1ccccc1 :: > 100 µM
NC(=O)c1ccc[n+](C2=C([O-])c3ccccc3C(=O)/C2=N\S(=O)(=O)c2ccccc2)c1 :: 32.1 µM
Nc1c2ccccc2nc2c(C(=O)Nc3ccc(S(N)(=O)=O)cc3)cccc12 :: > 100 µM
CC(C)(C)OC(=O)Nc1ccc2c(c1)C(NC(=O)Nc1cccc(C#N)c1)CC(C)(C)O2 (stereo unspecified) :: 17 µM
Cc1cccc2c1CC(Cc1ccccc1C(=O)O)C2=O (stereo unspecified) :: > 100 µM
CSc1ncc2c(n1)-c1ccccc1OC2NC1CC1 (stereo unspecified) :: > 100 µM

Input line: Lookup: TGI / UACC-62 melanoma / COc1cc2cnc3c4cc(OCc5ccccc5)ccc4ccc3c2cc1OC
Output line: > 100 µM

Input line: Lookup: TGI / UACC-62 melanoma / CC[C@H](C)[C@H](NC(=O)c1cccn1C)C(=O)N(C)[C@H](C[C@@H](OC(C)=O)c1nc(C(=O)N[C@@H](Cc2ccccc2)C[C@H](C)C(=O)OC)cs1)C(C)C
Output line: > 26 µM

Input line: Lookup: TGI / UACC-62 melanoma / C[C@]12C[C@H](O)[C@H]3[C@@H](CCC4=CC(=O)CC[C@@]43C)[C@@H]1CC[C@@H]2c1csc(-c2ccccc2)n1
Output line: > 100 µM

Input line: Lookup: TGI / UACC-62 melanoma / COc1cc(NCCCCCN=C(N)NC(N)=NC(C)C)c2ncccc2c1
Output line: 8.96 µM

Input line: Lookup: TGI / UACC-62 melanoma / N#Cc1cccc(N2C(=O)C3C4C=CC(C3C2=O)C2C(=O)N(c3cccc(C#N)c3)C(=O)C42)c1 (stereo unspecified)
Output line: > 100 µM

Input line: Lookup: TGI / UACC-62 melanoma / OC(CC(O)(C(F)(F)Cl)C(F)(F)Cl)c1ccccc1 (stereo unspecified)
Output line: > 10 µM

---

test system: SF-268 CNS; test: NCI tumour cell line growth inhibition, 48 h
Each item that follows carries a reported TGI.
Write the number in µM without appending the unit.

Below, 4 molecules whose answers are already recorded.
CCC[CH2][Sn]1([CH2]CCC)[S]CC[N]1S(=O)(=O)c1ccc(C)cc1 :: 2.54
Cn1c(=O)cc(NNc2ccc(Cl)c(Cl)c2)[nH]c1=O :: 75.9
COc1ccc(C(=O)/C=C/SC(=NC#N)SC)cc1 :: 70.3
CCN(CC)CCCCNc1c2ccc(Cl)cc2nc2ccc(OC)cc12 :: 3.33

Input line: Lookup: TGI / SF-268 CNS / COc1cc(/C=N/N=C(\N)NO)c([N+](=O)[O-])cc1OC
Output line: 99.2

---

Each item that follows carries a reported TGI.
system: KM12 colon; experiment: NCI tumour cell line growth inhibition, 48 h

CN(C)CCNCCCNc1c2ccccc2nc2cccc([N+](=O)[O-])c12 :: 0.111 µM
CC/C=N\N1C(N)=C(C#N)C(C#N)(C#N)C1CC (centres undefined) :: > 100 µM
C/C=C(\C)C(=O)OC1/C=C(\C)CC/C=C(\C)CC2OC(=O)C(C)(OC(C)=O)C12 (centres undefined) :: > 100 µM
O=C([C@H](O)[C@@H](O)c1cccc(Cl)c1)C12CC3CC(CC(C3)C1)C2 :: 6.01 µM
O=C(NC(C(F)(F)F)(C(F)(F)F)P(=O)(Cc1ccccc1)Cc1ccccc1)C(C(F)(F)F)C(F)(F)F :: 37.7 µM
CC(=N/NC(=S)N(C)C)/C(=N\NC(=S)N(C)C)c1ccccc1 :: 4.44 µM
CC1=CCCC2C(C=O)(C1)CC(C)C2(CO)CC/C(=C/CO)CO (centres undefined) :: > 100 µM
Nc1ccc(/C=C/c2ccc3cccnc3c2)cc1 :: > 100 µM

From here, focus on the item given below.
Input line: Lookup: TGI / KM12 colon / C[C@@H]1CC[C@@]2(NC1)O[C@H]1C[C@H]3[C@@H]4CC[C@H]5C[C@@H](O)CC[C@]5(C)[C@H]4CC[C@]3(C)[C@H]1[C@@H]2C
Output line: 66.8 µM

Data origin: PubChem BioAssay (NCI)
